Entry source: patent US11339151B2

Reported values of pIC50 for individual entries
- tested-on: human 5-HT7 receptor (Homo sapiens (Human), UniProt P34969)
- Sequence (P34969 whole entry): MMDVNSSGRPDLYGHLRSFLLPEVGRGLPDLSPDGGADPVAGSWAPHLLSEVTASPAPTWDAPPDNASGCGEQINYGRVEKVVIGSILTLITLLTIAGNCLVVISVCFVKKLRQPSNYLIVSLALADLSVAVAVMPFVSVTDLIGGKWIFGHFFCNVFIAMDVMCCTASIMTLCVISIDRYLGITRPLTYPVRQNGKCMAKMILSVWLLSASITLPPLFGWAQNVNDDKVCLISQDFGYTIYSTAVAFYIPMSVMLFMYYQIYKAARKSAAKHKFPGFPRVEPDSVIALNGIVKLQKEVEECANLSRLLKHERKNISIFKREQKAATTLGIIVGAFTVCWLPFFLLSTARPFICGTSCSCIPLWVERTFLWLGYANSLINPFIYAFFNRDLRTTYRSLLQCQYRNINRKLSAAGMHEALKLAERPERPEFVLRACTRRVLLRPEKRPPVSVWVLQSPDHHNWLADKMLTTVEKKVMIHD
- experiment-summary: Test 2: antagonist activity for human 5-HT7 receptor (aequorin luminescence, CHO-K1 cells)
- condition-set: Gα16
pIC50: −log10 of the molar value.
observation-type: pIC50

| compound | observation-type | measured-number |
| --- | --- | --- |
| CC(C)N(CCN1CCC(c2noc3cc(F)ccc23)CC1)C(=O)[C@H](C)O | pIC50 | 8.15 |
| CCN(CCN1CCC(c2noc3ccc(F)cc23)CC1)C(=O)[C@H](C)O | pIC50 | 7.31 |
| CCN(CCN1CCC(c2noc3cc(F)ccc23)CC1)C(=O)C1CN(C(C)=O)CCC1O (stereo not drawn) | pIC50 | 7.11 |
| CCN(CCN1CCC(n2ncc3cc(F)ccc32)CC1)S(=O)(=O)C(C)CO (stereo not drawn) | pIC50 | 7.00 |
| CCN(CCN1CCC(c2noc3cc(F)ccc23)CC1)C(=O)C1CN(C)CC1O (stereo not drawn) | pIC50 | 7.10 |
| CCN(CCN1CCC(c2noc3cc(F)ccc23)CC1)C(=O)C(O)C(C)C (stereo not drawn) | pIC50 | 8.10 |
| CCN(CCN1CCC(c2noc3cc(F)ccc23)CC1)C(=O)C1CCC(O)CC1 (stereo not drawn) | pIC50 | 8.10 |
| CCN(CCN1CCC(c2noc3cc(F)ccc23)CC1)C(=O)C1(O)CC1 | pIC50 | 7.39 |
| CCN(CCN1CCC(c2noc3cc(F)ccc23)CC1)C(=O)C1(O)CCCN(C(C)=O)C1 (stereo not drawn) | pIC50 | 8.10 |
| CCN(CCCN1CCC(c2noc3cc(F)ccc23)CC1)S(=O)(=O)CCO | pIC50 | 7.36 |
| CCN(CCN1CCC(c2noc3cc(F)c(C)cc23)CC1)S(=O)(=O)CCO | pIC50 | 6.99 |
| CCN(CCN1CCC(n2ccc3cc(F)ccc32)CC1)C(=O)C(C)O (stereo not drawn) | pIC50 | 7.09 |
| CCN(CCN1CCC(c2noc3cc(F)ccc23)CC1)C(=O)C1(O)CCNC1 (stereo not drawn) | pIC50 | 8.05 |
| CCN(CCN1CCC(n2ncc3cc(F)ccc32)CC1)S(=O)(=O)CCO | pIC50 | 7.34 |
| CCN(CCN1CCC(c2c[nH]c3cc(F)ccc23)CC1)C(=O)[C@H](C)O | pIC50 | 7.32 |
